# Tested on: Moraxella catarrhalis
# procedure_details: MIC against Gram-negative bacteria: Moraxella catarrhalis
# Format: cell-based
# test_parameters: M. catarrhalis; 10 h cultivation at 37° C.; 5×10^5 CFU/mL
Reported MIC (μg/mL) M. catarrhalis values for the following substances.
recorded_endpoint: MIC (μg/mL) M. catarrhalis (µg/mL)

{"columns": ["substance", "system_under_test", "units_of_measure", "number"],
 "data": [
  ["PRT893 (NINECSSQPCRHGGTCQDRDNAYLCFCLKGTTGPNCE; listed as Homo sapiens)", "Moraxella catarrhalis", "µg/mL", 25],
  ["PRT869 (CKCNLHATVCVYDNSKLTCECEHNTTGPDCGKCKKNYQGRPWSPGSYLPIPKGTANTCIP; listed as Homo sapiens)", "Moraxella catarrhalis", "µg/mL", 12.5],
  ["PRT202 (KSTNCSSKCKGHAVCDHELQCQCEEGWIPPDCD; listed as Homo sapiens)", "Moraxella catarrhalis", "µg/mL", 12.5],
  ["PRT252 (TAACTNTSCSGHGECVETINNYTCKCDPGFSGLKCE; listed as Homo sapiens)", "Moraxella catarrhalis", "µg/mL", 12.5],
  ["PRT886 (RGPRCSQPGETCLNGGKCEAANGTEACVCGGAFVGPRCQ; listed as Homo sapiens)", "Moraxella catarrhalis", "µg/mL", 12.5],
  ["PRT837 (RFSLCPGGCQSHGQCQPPGVCACEPGWGGPD; listed as Homo sapiens)", "Moraxella catarrhalis", "µg/mL", 25],
  ["PRT238 (DICDPNPCENGGICLPGLADGSFSCECPDGFTDPNCS; listed as Homo sapiens)", "Moraxella catarrhalis", "µg/mL", 12.5],
  ["PRT182 (QQPICLSGCHEQNGYCSKPAECLCRPGWQGRLCN; listed as Homo sapiens)", "Moraxella catarrhalis", "µg/mL", 100]
]}

====

# Test system: Citrobacter diversus
# procedure_details: MIC against Gram-negative bacteria: Citrobacter diversus
# Assay type: cell-based
# test_parameters: Citrobacter diversus; 5×10^5 CFU/mL; 10 h cultivation at 37° C.
# Procedure: 1. Gram-negative bacteria, such as E. coli BL21, Pseudomonas aeruginosa, Klebsiella pneumonia, Enterobacter cloacae, Aeromonas hydrophila, Citrobacter diversus, Moraxella catarrhalis, Proteus mirabilis, Proteus vulgaris, Serratia marcescens, etc were streaked on solid LB medium and cultured respectively. Then, typical clones were picked, inoculated into common liquid LB medium respectively, and cultured at 37° C. with shaking at 185 rpm until the McFarland specific turbidity was 0.5. […]

{"columns": ["substance", "units_of_measure", "MIC against C. diversus"],
 "data": [
  ["PRT1422 (DVDDCILEPSPCPQRCVNTQGGFECHCYPNYDLVDGECV; listed as Homo sapiens)", "µg/mL", 12.5],
  ["PRT1421 (ATQSCNDLCEHFCVPNPDQPGSYSCMCETGYRLAADQHRCE; listed as Homo sapiens)", "µg/mL", 25],
  ["PRT1386 (GSRACPRDCRGRGRCENGVCVCNAGYSGEDC; listed as Homo sapiens)", "µg/mL", 12.5],
  ["PRT1378 (AIQTCPGDCRGRGECHDGSCVCKDGYAGEDCG; listed as Homo sapiens)", "µg/mL", 25],
  ["PRT1374 (GVRQCPNDCSQHGVCQDGVCICWEGYVSEDC; listed as Homo sapiens)", "µg/mL", 12.5],
  ["PRT1365 (SQLRCPNDCHSRGRCVEGKCVCEQGFKGYDCS; listed as Homo sapiens)", "µg/mL", 50],
  ["PRT1465 (CECDSLGTLPGTICDPISGQCLCVPNRQGRRCNQCQPGFYISPGNATGCLP; listed as Homo sapiens)", "µg/mL", 25],
  ["PRT1481 (PVNLCKPSPCMNEGSCVLQNGSYRCKCRDGWEGPHCE; listed as Homo sapiens)", "µg/mL", 12.5],
  ["PRT1380 (SQRSCPRGCSQRGRCEGGRCVCDPGYTGDDC; listed as Homo sapiens)", "µg/mL", 12.5],
  ["PRT1371 (GTRACPGDCRGRGRCVDGRCVCNPGFTGEDC; listed as Homo sapiens)", "µg/mL", 100],
  ["PRT1424 (CQMFCNQTACPADCDPNTQASCECPEGYILDDGFICT; listed as Homo sapiens)", "µg/mL", 25],
  ["PRT1453 (DVDECAEPGLSHCHALATCVNVVGSYLCVCPAGYRGDGWHCE; listed as Homo sapiens)", "µg/mL", 25],
  ["PRT1471 (GKNWCEEDMENGGCEYLCLPAPQINDHSPKYTCSCPSGYNVEENGRDCQ; listed as Homo sapiens)", "µg/mL", 50],
  ["PRT1397 (PMNQCIDPSCGGHGSCIDGNCVCSAGYKGEHCE; listed as Homo sapiens)", "µg/mL", 25],
  ["PRT1366 (ERLACPGACSGHGRCVDGRCLCHEPYVGADCG; listed as Homo sapiens)", "µg/mL", 12.5],
  ["PRT1415 (PRATCLDQCSGHGTFLPDTGLCSCDPSWTGHDCS; listed as Homo sapiens)", "µg/mL", 50],
  ["PRT1463 (CDCDTAGSLPGTVCNAKTGQCICKPNVEGRQCNKCLEGNFYLRQNNSFLCLP; listed as Homo sapiens)", "µg/mL", 50],
  ["PRT1392 (TELCTMECGSHGVCSRGICQCEEGWVGPTC; listed as Homo sapiens)", "µg/mL", 12.5],
  ["PRT1486 (TVKSCDCLNGGSCVSDRNFSPGSGVYLCVCLPGFHGSLCE; listed as Homo sapiens)", "µg/mL", 12.5],
  ["PRT1377 (PASACPGGCGPRELCRAGQCVCVEGFRGPDC; listed as Homo sapiens)", "µg/mL", 12.5],
  ["PRT1381 (GMRSCPRGCSQRGRCENGRCVCNPGYTGEDC; listed as Homo sapiens)", "µg/mL", 25],
  ["PRT1373 (STRSCPGGCRGRGQCLDGRCVCEDGYSGEDC; listed as Homo sapiens)", "µg/mL", 50]
]}

====

Reported MIC A. hydrophila values for the following substances.
# Tested on: Aeromonas hydrophila
# procedure_details: MIC against Gram-negative bacteria: Aeromonas hydrophila
# Assay type: cell-based
# test_parameters: 96-well plate, 5×10^5 CFU/mL, 37° C., 10 h

{"columns": ["substance", "system_under_test", "units_of_measure", "MIC A. hydrophila"],
 "data": [
  ["PRT635 (DINECLEDKSVCQRGDCINTAGSYDCTCPDGFQLDDNKTCQ; listed as Homo sapiens)", "Aeromonas hydrophila", "µg/mL", 25],
  ["PRT594 (CACNNNIDVTDPESCSRVTGECLRCLHNTQGANCQLCKPGHYGSALNQTCRR; listed as Homo sapiens)", "Aeromonas hydrophila", "µg/mL", 12.5],
  ["PRT719 (CNNPCEQFNGGCSHICAPGPNGAECQCPHEGNWYLANNRKHCI; listed as Homo sapiens)", "Aeromonas hydrophila", "µg/mL", 12.5],
  ["PRT721 (DIDECTEMPFVCSQKCENVIGSYICKCAPGYLREPDGKTCR; listed as Homo sapiens)", "Aeromonas hydrophila", "µg/mL", 12.5],
  ["PRT624 (CRCSPLGAASAQCHENGTCVCRPGFEGYKCDRCHDNFFLTADGTHCQQC; listed as Homo sapiens)", "Aeromonas hydrophila", "µg/mL", 12.5],
  ["PRT597 (CDCNRAGTQKPICDPDTGMCRCREGVSGQRCDRCARGHSQEFPTCLQ; listed as Homo sapiens)", "Aeromonas hydrophila", "µg/mL", 50],
  ["PRT734 (NNNPCLENNGGCSHLCFALPGLHTPKCDCAFGTLQSDGKNCA; listed as Homo sapiens)", "Aeromonas hydrophila", "µg/mL", 50],
  ["PRT620 (CPCHNGFSCSVMPETEEVVCNNCPPGVTGARCELCADGYFGDPFGEHGPVRPCQP; listed as Homo sapiens)", "Aeromonas hydrophila", "µg/mL", 50],
  ["PRT718 (MTLCSALNCQYQCHETPYGGACFCPPGYIINHNDSRTCV; listed as Homo sapiens)", "Aeromonas hydrophila", "µg/mL", 25],
  ["PRT730 (NGNSCSDFNGGCTHECVQEPFGAKCLCPLGFLLANDSKTCE; listed as Homo sapiens)", "Aeromonas hydrophila", "µg/mL", 25],
  ["PRT615 (CDCHALGSTNGQCDIRTGQCECQPGITGQHCERCEVNHFGFGPEGCKP; listed as Homo sapiens)", "Aeromonas hydrophila", "µg/mL", 25],
  ["PRT617 (CNCNSKGSLSARCDNSGRCSCKPGVTGARCDRCLPGFHMLTDAGCTQ; listed as Homo sapiens)", "Aeromonas hydrophila", "µg/mL", 12.5],
  ["PRT659 (DADECVIFGPGLCPNGRCLNTVPGYVCLCNPGFHYDASHKKCE; listed as Homo sapiens)", "Aeromonas hydrophila", "µg/mL", 50],
  ["PRT626 (CDCQSAGSLHLQCDDTGTCACKPTVTGWKCDRCLPGFHSLSEGGCRP; listed as Homo sapiens)", "Aeromonas hydrophila", "µg/mL", 50],
  ["PRT630 (CQCSGNVDPNAVGNCDPLSGHCLRCLHNTTGDHCEHCQEGFYGSALAPRPADKCMP; listed as Homo sapiens)", "Aeromonas hydrophila", "µg/mL", 25]
]}
